# test: Agilent InfinityLab Poroshell 120 SB-C18, 100 × 2.1 mm, 2.7 µm, 40 °C, 0.2 mL/min, estimated dead time 1.1 min; A: water + 0.1% formic acid; B: acetonitrile; gradient (min/%B) 0/2 15/95 16/95
# details: stereoisomer not certain
endpointName: LC retention time (min)

Example compounds with recorded LC retention time:
compound | LC retention time [min]
NC(=O)c1ncn(C2OC(COP(=O)(O)O)C(O)C2O)c1NC=O (centres undefined) | 1.34
NC(CCC(=O)NC(CS)C(=O)NCC(=O)O)C(=O)O (centres undefined) | 2.1
O=C(O)C(=O)Cc1ccccc1 | 1.62
C=C(CC)C(=O)O | 1.62
OCC(O)CO | 3.76

1 = O=c1ccn(C2OC(COP(=O)(O)OP(=O)(O)O)C(O)C2O)c(=O)[nH]1 (centres undefined)
2 = NC1C(O)OC(CO)C(O)C1O (centres undefined)
3 = O=C(O)CCC(=O)O
4 = NCC(=O)O
stdin: Hey, quick one: sort these by LC retention time, largest value first please. Your reply should list the labels following the order given in the request.
stdout: 1, 3, 4, 2

a = O=C(CO)C(O)C(O)C(O)COP(=O)(O)O (centres undefined)
b = CC=CC(=O)O
stdin: Please indicate which item has the smaller measured LC retention time: a versus b # answer = label of selected item
stdout: a

1 = Cc1cn(C2CC(O)C(CO)O2)c(=O)[nH]c1=O (centres undefined)
2 = CCCCCC=CCC=CC=CC=CC(SCC(N)C(=O)NCC(=O)O)C(O)CCCC(=O)O (centres undefined)
stdin: Between 1 and 2 , whose measured LC retention time reads higher? # answer = label of selected item
stdout: 1

This collection of values is drawn from the RepoRT retention time repository.
